Experiment: Single dose crossover pharmacokinetic study in dogs
Assay type: in vivo
Settings: male, dog, plasma, po, Animal 1004; male dog; single oral (gavage) dose, d3-etoricoxib 2.00 mg/kg, etoricoxib 1.98 mg/kg; plasma; read-out: AUC0.5-24 h
measured.endpoint: AUC (ng·h/mL)
Numeric answer only, unit ng·h/mL assumed.

Cc1ccc(-c2ncc(Cl)cc2-c2ccc(S(C)(=O)=O)cc2)cn1: 336

// next item, AUC requested
AUC for [2H]C([2H])([2H])c1ccc(-c2ncc(Cl)cc2-c2ccc(S(C)(=O)=O)cc2)cn1 ?
658

----------
Each entry below lists one item and its recorded Cmax value.
Assay: Single dose crossover pharmacokinetic study in dogs
Assay type: in vivo
Conditions: male, dog, plasma, po, Animal 1001; male dog; single oral (gavage) dose, d3-etoricoxib 2.00 mg/kg, etoricoxib 1.98 mg/kg; plasma; read-out: Cmax
Numeric answer only, unit µg/mL assumed.

[2H]C([2H])([2H])c1ccc(-c2ncc(Cl)cc2-c2ccc(S(C)(=O)=O)cc2)cn1 [d3-etoricoxib]: 0.628

// next item, Cmax requested
Cmax for Cc1ccc(-c2ncc(Cl)cc2-c2ccc(S(C)(=O)=O)cc2)cn1 [etoricoxib] ?
0.259
